These entries and their values trace back to PubChem BioAssay AID1963844.

- Test system: 422866-222-R5-J1-PDC complex spheroid viability
- Assay Comment: Anticancer human tumor 422866-222-R5-J1-PDC patient-derived pancreatic adenocarcinoma cell line growth inhibition [POLQ]
- Applied Conditions: second compound 0.0316 µM; first compound 1 µM; stronger effect = lower value
Exam item: assign true (1) to entries whose viability, T/C is below 90% and false (0) to entries at or above 90%. Note that a value of exactly 90% receives false (0).

Worked examples, 5 compounds total:
Compound	Label Value
CC1COCCN1c1cc(C2(S(C)(=N)=O)CC2)nc(-c2ccnc3[nH]ccc23)n1 (stereo unspecified) + Cc1cccc(N(C)C(=O)C2C(O)CCN2c2nc(C)cc(C(F)(F)F)c2C#N)c1	true (1)
C=CC(=O)N1CCN(c2nc(=O)n(-c3c(C)ccnc3C(C)C)c3nc(-c4c(O)cccc4F)c(F)cc23)C(C)C1 (stereo unspecified) + Cc1cccc(N(C)C(=O)C2C(O)CCN2c2nc(C)cc(C(F)(F)F)c2C#N)c1	true (1)
COc1cccc2c1C(=O)c1c(O)c3c(c(O)c1C2=O)CC(O)(C(=O)CO)CC3OC1CC(N)C(O)C(C)O1 (stereo unspecified) + Cc1cccc(N(C)C(=O)C2C(O)CCN2c2nc(C)cc(C(F)(F)F)c2C#N)c1	true (1)
COc1cc2cc(C(=O)CCC(=O)O)sc2cc1OC + Nc1ccc(C#CCN(C(=O)Cc2ncc(C(F)(F)F)cc2C(F)(F)F)c2ccc(F)cc2)nn1	false (0)
O=C(c1cc(Cc2n[nH]c(=O)c3ccccc23)ccc1F)N1CCN(C(=O)C2CC2)CC1 + Nc1ccc(C#CCN(C(=O)Cc2ncc(C(F)(F)F)cc2C(F)(F)F)c2ccc(F)cc2)nn1	false (0)

Next, consider the following compound.
Input: Consider the compound CNCc1ccc(-c2[nH]c3cc(F)cc4c3c2CCNC4=O)cc1 + Cc1cccc(N(C)C(=O)C2C(O)CCN2c2nc(C)cc(C(F)(F)F)c2C#N)c1 . Is its viability, T/C strictly less than 90%?
Output: false (0)

* * *

- Test system: 422866-222-R5-J1-PDC complex spheroid viability
- Assay Comment: Anticancer human tumor 422866-222-R5-J1-PDC cell line growth inhibition [POLQ];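 further: spheroids exposed to compounds for one week before readout; percent of DMSO vehicle wells luminescence so 100% = untreated viability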
- Applied Conditions: second compound 0.0316 µM; first compound 1 µM; stronger effect = lower value
Exam item: assign met to entries whose viability, T/C is below 40% and not met to entries at or above 40%. Note that a value of exactly 40% receives not met.

Molecule	Label Value
CCc1cc2c(N3CCc4c(cc(Cn5ccnc5)cc4-c4cn(C)nc4C(F)(F)F)C3=O)cc(C)nc2c(OC)n1 + Nc1ccc(C#CCN(C(=O)Cc2ncc(C(F)(F)F)cc2C(F)(F)F)c2ccc(F)cc2)nn1	not met
O=C(c1cc(Cc2n[nH]c(=O)c3ccccc23)ccc1F)N1CCN(C(=O)C2CC2)CC1 + COC1C(OC(N)=O)C(O)C(Oc2ccc3c(O)c(NC(=O)c4ccc(O)c(CC=C(C)C)c4)c(=O)oc3c2C)OC1(C)C	met
CC(C)n1c(=O)n(C)c2cnc3cc(F)c(-c4ccc(OCCCN5CCCCC5)nc4)cc3c21 + Cc1cccc(N(C)C(=O)C2C(O)CCN2c2nc(C)cc(C(F)(F)F)c2C#N)c1	not met
Nc1ccn(C2OC(CO)C(O)C2(F)F)c(=O)n1 (stereo not given) + Nc1ccc(C#CCN(C(=O)Cc2ncc(C(F)(F)F)cc2C(F)(F)F)c2ccc(F)cc2)nn1	met

Next, consider the following molecule.
Input: Consider the molecule COc1cccc(OCCCN)c1-c1cc(Nc2cnc(C#N)cn2)n[nH]1 + COC1C(OC(N)=O)C(O)C(Oc2ccc3c(O)c(NC(=O)c4ccc(O)c(CC=C(C)C)c4)c(=O)oc3c2C)OC1(C)C . Is its viability, T/C strictly less than 40%?
Output: met
